Reference source: patent US5504101A

- assaySystem: 5-HT1Dβ receptor (Homo sapiens)
- Construct: expressed in transfected cells
- Sequence (P28222 whole entry): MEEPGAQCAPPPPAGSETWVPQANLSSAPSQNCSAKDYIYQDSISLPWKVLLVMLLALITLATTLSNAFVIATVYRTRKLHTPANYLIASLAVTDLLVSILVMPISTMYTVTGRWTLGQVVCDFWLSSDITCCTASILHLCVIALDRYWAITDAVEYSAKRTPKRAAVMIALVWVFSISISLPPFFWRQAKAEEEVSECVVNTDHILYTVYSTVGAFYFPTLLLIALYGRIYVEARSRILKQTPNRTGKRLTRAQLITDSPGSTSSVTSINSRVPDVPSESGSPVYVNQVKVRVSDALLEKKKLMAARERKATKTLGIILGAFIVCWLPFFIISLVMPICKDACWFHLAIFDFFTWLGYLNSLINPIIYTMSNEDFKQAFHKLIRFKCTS
- assayProcedure: biochemical
- Assay type: binding
- measurementSetup: ^3 H-5-HT radioligand; membranes from recombinant cells; 15 minute incubation at 37° C.; test compound 10^-11 M to 10^-5 M
Give measured pKi for each item. Keep answers brief.
The read-out pKi is expressed as -log10 of concentration in moles per litre.

Memo: `NCCc1c[nH]c2ccc(Cc3ccccc3)cc12` , reported pKi: 8.43

Memo: `COc1ccc(CCc2ccc3[nH]cc(CCN)c3c2)cc1` , reported pKi: 8.49

Memo: NCCc1c[nH]c2ccc(OCc3ccccc3)cc12 [PhCH2 O--, 3-(2-aminoethyl)-5-benzyloxyindole, reference compound] , reported pKi: 7.98

Memo: `NCCc1c[nH]c2ccc(OCCCCCCc3ccccc3)cc12` , reported pKi: 8.72

Memo: `NCCc1c[nH]c2ccc(OCCCCc3ccccc3)cc12` , reported pKi: 9.72

Memo: `NCCc1c[nH]c2ccc(OCCc3ccccc3)cc12` , reported pKi: 9.00

Memo: `NCCc1c[nH]c2ccc(CCc3ccccc3)cc12` , reported pKi: 8.54

Memo: NCCc1c[nH]c2ccc(OCCCCCCCCc3ccccc3)cc12 [Ph(CH2)8 O--, reference compound] , reported pKi: 7.88

Memo: `NCCc1c[nH]c2ccc(OCCCCCc3ccccc3)cc12` , reported pKi: 9.19
